# Tested on: LOX IMVI melanoma
# assay_details: NCI tumour cell line growth inhibition, 48 h
Provide the recorded TGI for the entries that follow.

N=C1C(c2nc3ccccc3c(=O)[nH]2)=C(O)CN1c1cccc(Cl)c1 has a reported TGI of > 100 µM

CC(C)(C)OC(=O)NC(Cc1ccc(OC(C)(C)C)cc1)C(=O)N[C@H]1CC[C@H](C(=O)O)C1 (stereo not given in full) has a reported TGI of > 100 µM

O=C(CC(=O)N1N=C(n2ccc3ccccc32)CC1c1ccccc1)Nc1ccccc1Cl (stereo not given) has a reported TGI of > 100 µM

COc1cc2c3c(n(CCCNCCCCN)c(=O)c2cc1OC)-c1cc2c(cc1C3=O)OCO2 has a reported TGI of 10.1 µM

O=C1CC[C@@H](S(=O)(=O)c2ccccc2)[C@H](/C=C/c2ccccc2)O1 has a reported TGI of > 100 µM
